Measured % bound of individual entries
TARGET_OF_ASSAY: T1, human collagen type I (acid soluble, extracted from placenta, Sigma C7774) (human, UniProt P02452 162-1218; P08123 80-1119)
T1 construct: gelled and dried as a fibril film in the assay; also called dried human collagen; h-Collagen
METHOD: dried collagen assay
Bridge positions count the residues as written; N and C are the ends. Ends that are not written are not given here.
REPORTED_METRIC: % bound (%)

1) TWACGWTTTGWDNCRWI (disulfide 4-14 (inferred)) [SEQ ID NO: 90]    34
2) IWLCTGGAATWNCKFD (disulfide 4-13 (inferred)) [SEQ ID NO: 25]    39
3) TWNCYGVTEWHCYMI (disulfide 4-12 (inferred)) [SEQ ID NO: 9]    7
4) WISCESSEEKISYCWRA (disulfide 4-14 (inferred)) [SEQ ID NO: 97]    13
5) WAYCMTDPSGKYRYCQNW (disulfide 4-15 (inferred)) [SEQ ID NO: 102]    31
6) YSACYQAGCWIW (disulfide 4-9 (inferred)) [SEQ ID NO: 109]    21
7) WWGCRQGTGEHWSHCMWF (disulfide 4-15 (inferred)) [SEQ ID NO: 100]    67
8) RWSCWLDENGWKCDGT (disulfide 4-13 (inferred)) [SEQ ID NO: 52]    15
9) NWVCSGDHADWSCALI (disulfide 4-13 (inferred)) [SEQ ID NO: 32]    12
10) SWNCHWRNQGWLCSGG (disulfide 4-13 (inferred)) [SEQ ID NO: 55]    12
11) DWICHGDFDTWKCDLQ (disulfide 4-13 (inferred)) [SEQ ID NO: 29]    16
12) PWTCRMTENTWVCDLN (disulfide 4-13 (inferred)) [SEQ ID NO: 47]    22
